protocol_notes: Pharmacokinetic study of oral and intravenous test compounds in SD rats
Type: in vivo
test_conditions: rat, plasma; Oral, 10 mg/kg, SD male rats; read-out: Peak concentration Cmax
Answer each item with its documented Cmax.
Give your result in nM as a bare value.

So for Cc1nsc2nc(Nc3cnn(C4CCOC4)c3)nc(N[C@H]3CC[C@H](N4CCOCC4)CC3)c12 (stereo partly drawn) [WX007] , the logged Cmax turned out to be 389

So for CC(C)c1nsc2nc(Nc3cnn(C4CCOCC4)c3)nc(N[C@H]3CC[C@H](N4CCOCC4)CC3)c12 [WX003] , the logged Cmax turned out to be 523

So for NC(=O)C[C@H]1CCc2sc3ncnc(O[C@H]4CC[C@H](N5CCOCC5)CC4)c3c21 [WXR2, ND-2110, reference compound] , the logged Cmax turned out to be 893

So for Cc1nsc2nc(Nc3cnn(C4CCOCC4)c3)nc(N[C@H]3CC[C@H](N4CCOCC4)CC3)c12 [WX001] , the logged Cmax turned out to be 397

So for COC(=O)N1CCN([C@H]2CC[C@H](Nc3nc(Nc4cnn(C5CCOCC5)c4)nc4snc(C)c34)CC2)CC1 [WX026] , the logged Cmax turned out to be 308

So for Cc1nsc2nc(Nc3cnn(C4COC4)c3)nc(N[C@H]3CC[C@H](N4CCOCC4)CC3)c12 [WX009] , the logged Cmax turned out to be 540

====

protocol_notes: Pharmacokinetic study of oral and intravenous test compounds in SD rats
Assay type: in vivo
test_conditions: rat, plasma; Intravenous, 3 mg/kg, SD male rats; read-out: Apparent volume of distribution Vdss
Answer each item with its documented Vd.
Give your result in L/kg as a bare value.

So for NC(=O)C[C@H]1CCc2sc3ncnc(O[C@H]4CC[C@H](N5CCOCC5)CC4)c3c21 [WXR2, ND-2110, reference compound] , the logged Vd turned out to be 1.6

So for Cc1nsc2nc(Nc3cnn(C4COC4)c3)nc(N[C@H]3CC[C@H](N4CCOCC4)CC3)c12 , the logged Vd turned out to be 5.7

So for Cc1nsc2nc(Nc3cnn(C4CCOC4)c3)nc(N[C@H]3CC[C@H](N4CCOCC4)CC3)c12 (stereo partly drawn) , the logged Vd turned out to be 3.3

So for Cc1nsc2nc(Nc3cnn(C4CCOCC4)c3)nc(N[C@H]3CC[C@H](N4CCOCC4)CC3)c12 , the logged Vd turned out to be 4.6

So for COC(=O)N1CCN([C@H]2CC[C@H](Nc3nc(Nc4cnn(C5CCOCC5)c4)nc4snc(C)c34)CC2)CC1 , the logged Vd turned out to be 4.5

So for CC(C)c1nsc2nc(Nc3cnn(C4CCOCC4)c3)nc(N[C@H]3CC[C@H](N4CCOCC4)CC3)c12 , the logged Vd turned out to be 4.8

====

Answer each item with its documented clearance.
protocol_notes: Pharmacokinetic study of oral and intravenous test compounds in SD rats
Type: in vivo
test_conditions: rat, plasma; Intravenous, 3 mg/kg, SD male rats; read-out: Clearance CL
Give your result in mL/min/kg as a bare value.

So for CC(C)c1nsc2nc(Nc3cnn(C4CCOCC4)c3)nc(N[C@H]3CC[C@H](N4CCOCC4)CC3)c12 , the logged clearance turned out to be 71.4

So for Cc1nsc2nc(Nc3cnn(C4CCOC4)c3)nc(N[C@H]3CC[C@H](N4CCOCC4)CC3)c12 (stereo partly drawn) , the logged clearance turned out to be 79

So for Cc1nsc2nc(Nc3cnn(C4CCOCC4)c3)nc(N[C@H]3CC[C@H](N4CCOCC4)CC3)c12 , the logged clearance turned out to be 57

So for COC(=O)N1CCN([C@H]2CC[C@H](Nc3nc(Nc4cnn(C5CCOCC5)c4)nc4snc(C)c34)CC2)CC1 , the logged clearance turned out to be 50.6

So for Cc1nsc2nc(Nc3cnn(C4COC4)c3)nc(N[C@H]3CC[C@H](N4CCOCC4)CC3)c12 , the logged clearance turned out to be 73.3

So for NC(=O)C[C@H]1CCc2sc3ncnc(O[C@H]4CC[C@H](N5CCOCC5)CC4)c3c21 [WXR2, ND-2110, reference compound] , the logged clearance turned out to be 33.2

====

protocol_notes: Pharmacokinetic study of oral and intravenous test compounds in SD rats
Assay type: in vivo
test_conditions: rat, plasma; Oral, 10 mg/kg, SD male rats; read-out: Bioavailability F
measurement_name: bioavailability (%)
Give your result in % as a bare value.

So for CC(C)c1nsc2nc(Nc3cnn(C4CCOCC4)c3)nc(N[C@H]3CC[C@H](N4CCOCC4)CC3)c12 , the logged bioavailability turned out to be 48

So for NC(=O)C[C@H]1CCc2sc3ncnc(O[C@H]4CC[C@H](N5CCOCC5)CC4)c3c21 [WXR2, ND-2110, reference compound] , the logged bioavailability turned out to be 18

So for COC(=O)N1CCN([C@H]2CC[C@H](Nc3nc(Nc4cnn(C5CCOCC5)c4)nc4snc(C)c34)CC2)CC1 , the logged bioavailability turned out to be 23

So for Cc1nsc2nc(Nc3cnn(C4COC4)c3)nc(N[C@H]3CC[C@H](N4CCOCC4)CC3)c12 , the logged bioavailability turned out to be 58

So for Cc1nsc2nc(Nc3cnn(C4CCOC4)c3)nc(N[C@H]3CC[C@H](N4CCOCC4)CC3)c12 (stereo partly drawn) , the logged bioavailability turned out to be 38

So for Cc1nsc2nc(Nc3cnn(C4CCOCC4)c3)nc(N[C@H]3CC[C@H](N4CCOCC4)CC3)c12 , the logged bioavailability turned out to be 35
